experiment: Cytotoxicity in the multiple tumor disk diffusion soft agar assay at the dose of 15 ug/disk against solid tumor PO3; assay type: functional, Mus musculus
Reported metric: Cytotoxicity (U)
Answer with a number only, understood to be in U.

Below: 6 compounds and their reported Cytotoxicity.
CCN(CC)CCCNc1[nH]cc(C)c2nc3c(ccc4ccccc43)c1-2	200
CCN(CC)CCCNc1ncc(C)c2[nH]c3ccc4cc(O)ccc4c3c12	900
CCN(CC)CCCNc1ncc(C)c2c1c1ccc3cc(O)ccc3c1n2C	350
COc1ccc2c(ccc3c2c2c(NCCCN(C)C)ncc(C)c2n3C)c1	200
Cc1c[nH]c(NCC(C)CN(C)C)c2c3c(ccc4cc(O)ccc43)nc1-2 (configuration not stated)	850
Cc1cnc(NCCCN(C)C)c2c1[nH]c1ccc3cc(O)ccc3c12	850

Next up:
// query Give the measured Cytotoxicity for Cc1c[nH]c(NCCCN(C)C)c2c3ccc4ccccc4c3nc1-2
// result 310

###

test system: L1210; test: Tested for cytotoxicity in the multiple tumor disk diffusion soft agar assay at the dose of 15 ug/disk against leukemia L1210; U = 32 uM; format: functional, Mus musculus
Form field: Cytotoxicity (one value per entry).
Answer with a number only, understood to be in U.

Below: 3 molecules and their reported Cytotoxicity.
CCN(CC)CCCNc1ncc(C)c2c1c1ccc3ccccc3c1n2C	450
COc1cccc2c1ccc1c3c(NCCCN(C)C)ncc(C)c3n(C)c21	375
Cc1cnc(NCCCN(C)C)c2c3ccc4c(O)cccc4c3n(C)c12	675

Next up:
// query Please tell me the measured Cytotoxicity for CCN(CC)CCCNc1ncc(C)c2c1c1ccc3c(O)cccc3c1n2C ; system: L1210.
// result 500

###

system: L1210; experiment: Tested for cytotoxicity in the multiple tumor disk diffusion soft agar assay at the dose of 15 ug/disk against leukemia L1210; format: functional, Mus musculus
Form field: Cytotoxicity (one value per entry).
Answer with a number only, understood to be in U.

Below: 3 molecules and their reported Cytotoxicity.
CCN(CC)CCCNc1ncc(C)c2c1c1ccc3cc(O)ccc3c1n2C	400
CCN(CC)CCCNc1ncc(C)c2c1c1ccc3c(O)cccc3c1n2C	450
CCN(CC)CCCNc1[nH]cc(C)c2nc3c(ccc4cc(OC)ccc43)c1-2	325

// query Give the measured Cytotoxicity for Cc1c[nH]c(NCCCN(C)C)c2c3ccc4c(O)cccc4c3nc1-2
// result 500

// query Give the measured Cytotoxicity for Cc1cnc(NCCCN(C)C)c2c1[nH]c1ccc3ccccc3c12
// result 550

###

Form field: Cytotoxicity (one value per entry).
tested on: L1210; assay: Cytotoxicity in the multiple tumor disk diffusion soft agar assay at the dose of 15 ug/disk against leukemia L1210; type: functional, Mus musculus

Below: 3 compounds and their reported Cytotoxicity.
COc1ccc2c(ccc3c2c2c(NCCCN(C)C)ncc(C)c2n3C)c1	425 U
COc1ccc2c(ccc3[nH]c4c(C)cnc(NCC(C)CN(C)C)c4c32)c1 (configuration not stated)	425 U
Cc1cnc(NCCCN(C)C)c2c3c4ccccc4ccc3n(C)c12	425 U

// query Give the measured Cytotoxicity for CCN(CC)CCCNc1ncc(C)c2c1c1ccc3cc(O)ccc3c1n2C
// result 300 U

// query Give the measured Cytotoxicity for Cc1c[nH]c(NCC(C)CN(C)C)c2c3c(ccc4cc(O)ccc43)nc1-2 (configuration not stated)
// result 300 U

###

experiment: Cytotoxicity in the multiple tumor disk diffusion soft agar assay at the dose of 15 ug/disk against solid tumor PO3; type: functional, Mus musculus
Reported metric: Cytotoxicity
Respond with a number, then the unit of measure.

Cc1cnc(NCCCN(C)C)c2c3c4ccccc4ccc3n(C)c12	550 U

// query Give the measured Cytotoxicity for COc1cccc2c1ccc1c2[nH]c2c(C)cnc(NCCCN(C)C)c21
// result 225 U

// query Give the measured Cytotoxicity for COc1ccc2c(ccc3[nH]c4c(C)cnc(NCC(C)CN(C)C)c4c32)c1 (stereo not given)
// result 375 U

// query Give the measured Cytotoxicity for CCN(CC)CCCNc1ncc(C)c2c1c1c3ccc(OC)cc3ccc1n2C
// result 375 U

// query Give the measured Cytotoxicity for CCN(CC)CCCNc1[nH]cc(C)c2nc3c(ccc4cc(OC)ccc43)c1-2
// result 200 U

Measured values drawn from ChEMBL document CHEMBL1124779 for this set.
